Target: Histone-lysine N-methyltransferase SMYD3 (Homo sapiens, UniProt Q9H7B4)
Sequence (Q9H7B4 whole entry): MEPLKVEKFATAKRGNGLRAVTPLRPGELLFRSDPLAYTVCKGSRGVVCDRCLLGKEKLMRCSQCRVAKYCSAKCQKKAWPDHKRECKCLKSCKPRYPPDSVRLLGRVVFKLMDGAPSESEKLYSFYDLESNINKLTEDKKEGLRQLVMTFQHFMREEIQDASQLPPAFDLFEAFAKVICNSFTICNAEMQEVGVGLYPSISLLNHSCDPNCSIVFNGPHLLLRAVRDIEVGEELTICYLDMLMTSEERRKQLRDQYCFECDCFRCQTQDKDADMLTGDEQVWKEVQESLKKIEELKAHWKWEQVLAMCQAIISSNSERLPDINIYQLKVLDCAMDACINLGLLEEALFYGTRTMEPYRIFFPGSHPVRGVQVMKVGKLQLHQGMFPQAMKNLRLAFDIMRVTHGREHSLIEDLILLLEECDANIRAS
Endpoint: IC50 (µM)

Molecule	Readout value
NCc1ccc(Nc2ncnc3cc(C(=O)NC4CCNC4)ccc23)cc1 (stereo not given)	63
NCc1ccc(Nc2ncnc3cc(C(=O)NCCN4CCNCC4)ccc23)cc1	74

###

Listing: IC50 of selected molecules
biological target: Protein arginine N-methyltransferase 1 (Homo sapiens, UniProt Q99873); test: Displacement of 3H-SAM from PRMT1 (unknown origin) using biotinylated-histone H4 peptide as substrate incubated for 45 mins by SPA assay
Sequence (Q99873 whole entry): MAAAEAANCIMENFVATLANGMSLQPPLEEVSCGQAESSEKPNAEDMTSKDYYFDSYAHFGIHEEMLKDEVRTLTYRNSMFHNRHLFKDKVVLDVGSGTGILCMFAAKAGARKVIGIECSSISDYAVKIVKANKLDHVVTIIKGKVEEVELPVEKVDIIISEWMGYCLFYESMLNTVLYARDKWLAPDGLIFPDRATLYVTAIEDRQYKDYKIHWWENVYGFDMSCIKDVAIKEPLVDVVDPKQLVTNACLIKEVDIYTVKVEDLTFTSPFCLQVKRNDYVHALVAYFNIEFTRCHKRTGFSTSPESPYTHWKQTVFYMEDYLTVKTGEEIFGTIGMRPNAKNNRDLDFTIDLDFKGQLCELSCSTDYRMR

Molecule	Readout value
NC1CCN(c2ncnc3cc(C(=O)NC4CCNCC4)ccc23)CC1	> 200 µM
NCc1ccc(Nc2ncnc3cc(C(=O)NC4CCNCC4)ccc23)cc1	> 200 µM
NC1CCN(c2ncnc3cc(C(=O)NCCN4CCNCC4)ccc23)CC1	> 100 µM

State its IC50: CNCCN1CCC(NC(=O)c2ccc3c(Nc4ccc(CNC)cc4)ncnc3c2)C1 (stereo not given)
2 µM

State its IC50: NCc1ccc(Nc2ncnc3cc(C(=O)N4CCC(N)C4)ccc23)cc1 (stereo not given)
> 100 µM

###

target: Protein arginine N-methyltransferase 6 (Homo sapiens); assay: Inhibition of PRMT6 (unknown origin)
pIC50: −log10 of the molar value.
Endpoint: pIC50

A. CC(C)Oc1ccc(-c2c[nH]cc2CNCCN)cc1
B. CNCCNCc1c[nH]nc1-c1ccc(O[C@H]2C[C@H](OCCC3CCCCC3)C2)cc1
Given A and given B , which shows the smaller recorded pIC50? Answer by stating the label of the chosen item.
B
(B: 8.00, A: 8.40)

###

biological target: Protein arginine N-methyltransferase 1 (Homo sapiens); assay: Inhibition of PRMT1 (unknown origin)
Endpoint: IC50 (nM)

1. CNCCNCc1c[nH]nc1-c1ccc(O[C@H]2C[C@H](OCCC3CCCCC3)C2)cc1
2. CC(C)Oc1ccc(-c2c[nH]cc2CNCCN)cc1
Could you kindly indicate whether 1 or 2 has the higher IC50 value? Answer by stating the label of the chosen item.
1
(1: 119 nM, 2: 30 nM)

###

Biological target: Histone-arginine methyltransferase CARM1 (Homo sapiens)
Sequence (Q86X55 whole entry): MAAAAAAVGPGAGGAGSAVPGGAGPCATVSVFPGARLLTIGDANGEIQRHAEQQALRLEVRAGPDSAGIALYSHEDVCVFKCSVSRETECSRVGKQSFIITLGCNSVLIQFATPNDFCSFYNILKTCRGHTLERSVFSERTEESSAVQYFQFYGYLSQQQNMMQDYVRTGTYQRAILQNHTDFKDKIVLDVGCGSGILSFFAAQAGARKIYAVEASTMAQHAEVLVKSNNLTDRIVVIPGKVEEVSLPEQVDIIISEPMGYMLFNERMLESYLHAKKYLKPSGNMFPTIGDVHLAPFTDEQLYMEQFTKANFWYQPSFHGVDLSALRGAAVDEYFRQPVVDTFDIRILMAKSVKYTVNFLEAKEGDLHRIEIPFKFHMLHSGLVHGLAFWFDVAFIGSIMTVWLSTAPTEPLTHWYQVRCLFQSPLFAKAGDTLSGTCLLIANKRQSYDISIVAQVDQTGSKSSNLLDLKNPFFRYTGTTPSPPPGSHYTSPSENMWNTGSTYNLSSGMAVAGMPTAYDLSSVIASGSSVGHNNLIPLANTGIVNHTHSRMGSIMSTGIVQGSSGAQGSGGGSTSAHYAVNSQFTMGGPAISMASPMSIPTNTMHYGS
pKd: −log10 of the molar value.
Endpoint: pKd

Molecular string	pKd
CNCCN1CC[C@H](NC(=O)c2ccc3c(Nc4ccc(CN)cc4)ncnc3c2)C1	4.70
CNCCN1CC[C@@H](NC(=O)c2ccc3c(Nc4ccc(CN)cc4)ncnc3c2)C1	4.60

###

biological target: Protein arginine N-methyltransferase 6 (Homo sapiens, UniProt Q96LA8); test: Displacement of 3H-SAM from human PRMT6 in presence of substrate by SPA assay
Sequence (Q96LA8 whole entry): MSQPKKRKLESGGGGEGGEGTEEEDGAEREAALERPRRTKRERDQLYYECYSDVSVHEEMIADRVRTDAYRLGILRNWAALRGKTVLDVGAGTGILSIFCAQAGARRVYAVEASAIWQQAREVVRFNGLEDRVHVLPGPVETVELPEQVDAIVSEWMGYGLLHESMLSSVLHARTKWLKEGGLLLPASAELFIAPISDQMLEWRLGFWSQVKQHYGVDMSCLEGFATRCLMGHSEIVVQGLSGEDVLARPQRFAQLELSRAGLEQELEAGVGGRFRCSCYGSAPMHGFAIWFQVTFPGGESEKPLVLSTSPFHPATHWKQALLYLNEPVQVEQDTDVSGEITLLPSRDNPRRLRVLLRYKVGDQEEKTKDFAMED
pIC50: −log10 of the molar value.
Endpoint: pIC50

1. CNCCN1CC[C@H](NC(=O)c2ccc3c(Nc4ccc(CN)cc4)ncnc3c2)C1
2. CNCCN1CC[C@@H](NC(=O)c2ccc3c(Nc4ccc(CN)cc4)ncnc3c2)C1
3. CNCCN1CCC(NC(=O)c2ccc3c(Nc4ccc(CN)cc4)ncnc3c2)C1 (racemic)
Sort the entries above by pIC50, largest first. Show the ranking through the labels, in the order asked for.
2, 1, 3
(2: 3.60, 1: 3.36, 3: 3.15)

###

Target: Histone-lysine N-methyltransferase SUV39H1 (Homo sapiens, UniProt O43463)
Sequence (O43463 whole entry): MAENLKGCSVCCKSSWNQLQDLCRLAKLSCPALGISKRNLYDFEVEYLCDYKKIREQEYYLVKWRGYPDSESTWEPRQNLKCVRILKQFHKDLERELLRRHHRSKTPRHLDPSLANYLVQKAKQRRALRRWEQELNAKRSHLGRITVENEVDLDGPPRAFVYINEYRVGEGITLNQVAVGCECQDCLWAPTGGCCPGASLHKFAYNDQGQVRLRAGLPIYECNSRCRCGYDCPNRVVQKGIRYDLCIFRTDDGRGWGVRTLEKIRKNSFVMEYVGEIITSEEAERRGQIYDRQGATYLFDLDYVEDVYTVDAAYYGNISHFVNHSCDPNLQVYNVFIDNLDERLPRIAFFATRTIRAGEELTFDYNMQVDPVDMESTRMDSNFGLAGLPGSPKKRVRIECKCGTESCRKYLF
Assay: Displacement of 3H-SAM from SUV39H1 (unknown origin) using biotinylated-histone H3 peptide as substrate incubated for 45 mins by SPA assay
pIC50: −log10 of the molar value.
Endpoint: pIC50

Molecule	pIC50
CNCCNC(=O)c1ccc2c(Nc3ccc(CN)cc3)ncnc2c1	4.64
NCc1ccc(Nc2ncnc3cc(C(=O)NCCN4CCCC4)ccc23)cc1	4.85
CN(C)CCNC(=O)c1ccc2c(Nc3ccc(CN)cc3)ncnc2c1	4.66
NC1CCN(c2ncnc3cc(C(=O)NC4CCNC4)ccc23)CC1 (stereo not given)	4.80

###

biological target: Protein arginine N-methyltransferase 8 (Homo sapiens); assay: Displacement of 3H-SAM from human PRMT8 in presence of substrate by SPA assay
Sequence (Q9NR22 whole entry): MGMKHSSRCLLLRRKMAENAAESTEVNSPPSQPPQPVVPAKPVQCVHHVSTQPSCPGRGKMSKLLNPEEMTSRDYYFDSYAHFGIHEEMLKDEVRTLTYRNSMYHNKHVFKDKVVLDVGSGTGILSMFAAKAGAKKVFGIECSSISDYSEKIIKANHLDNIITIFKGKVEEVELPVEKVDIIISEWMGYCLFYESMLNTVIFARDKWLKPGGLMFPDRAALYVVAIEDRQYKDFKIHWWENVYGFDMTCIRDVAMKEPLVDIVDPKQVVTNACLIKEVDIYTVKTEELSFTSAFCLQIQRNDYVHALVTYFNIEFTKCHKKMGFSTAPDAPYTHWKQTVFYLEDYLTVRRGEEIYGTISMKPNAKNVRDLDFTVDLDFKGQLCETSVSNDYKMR
Endpoint: IC50 (µM)

Compound	Unit of measurement	Readout value
CNCCN1CC[C@@H](NC(=O)c2ccc3c(Nc4ccc(CN)cc4)ncnc3c2)C1	µM	794
CC(C)Oc1ccc(-c2c[nH]cc2CN(C)CCN)cc1	µM	9

I. CNCCN1CCC(NC(=O)c2ccc3c(Nc4ccc(CN)cc4)ncnc3c2)C1 (racemic)
II. CNCCN1CC[C@H](NC(=O)c2ccc3c(Nc4ccc(CN)cc4)ncnc3c2)C1
Given I and given II , which shows the smaller recorded IC50? Answer by stating the label of the chosen item.
II
(II: 823 µM, I: 2430 µM)

###

molecular target: UniProt Q86X55; assay: Displacement of 3H-SAM from human PRMT4 in presence of substrate by SPA assay
Endpoint: IC50 (µM)

A. CNCCN1CC[C@H](NC(=O)c2ccc3c(Nc4ccc(CN)cc4)ncnc3c2)C1
B. CNCCN1CC[C@@H](NC(=O)c2ccc3c(Nc4ccc(CN)cc4)ncnc3c2)C1
Given A and given B , which shows the smaller recorded IC50? Answer by stating the label of the chosen item.
B

A. CC(C)Oc1ccc(-c2c[nH]cc2CN(C)CCN)cc1
B. CNCCN1CCC(NC(=O)c2ccc3c(Nc4ccc(CN)cc4)ncnc3c2)C1 (racemic)
Given A and given B , which shows the smaller recorded IC50? Answer by stating the label of the chosen item.
A

###

assay: Aqueous solubility of compound at pH 7.4 incubated for 24 hrs by HPLC-UV spectroscopy; format: physicochemical; conditions: aqueous medium
Endpoint: solubility at 24 h (µg/mL)

Compound	solubility at 24 h (µg/mL)
CNCCN1CCC(NC(=O)c2ccc3c(Nc4ccc(CN)cc4)ncnc3c2)C1 (racemic)	187
CNCCN1CC[C@@H](NC(=O)c2ccc3c(Nc4ccc(CN)cc4)ncnc3c2)C1	210
CCCSc1ccc2nc(NC(=O)OC)[nH]c2c1 [ALBENDAZOLE]	2.2

###

target: Histone-lysine N-methyltransferase, H3 lysine-79 specific (Homo sapiens); assay: Displacement of 3H-SAM from DOT1L (unknown origin) at 30 uM incubated for 1 hr in presence of substrate by SPA assay relative to control
Endpoint: inhibition (%)

Sample records with inhibition:
Molecule	Endpoint	Unit of measurement	Readout value
CN(C)CCCNC(=O)c1ccc2c(Nc3ccc(CN)cc3)ncnc2c1	inhibition	%	0
CN1CCN(CCNC(=O)c2ccc3c(Nc4ccc(CN)cc4)ncnc3c2)CC1	inhibition	%	17

a. CN(C)CCNC(=O)c1ccc2c(Nc3ccc(CN)cc3)ncnc2c1
b. NCc1ccc(Nc2ncnc3cc(C(=O)NCCN4CCCC4)ccc23)cc1
Given a and given b , which shows the smaller recorded inhibition? Answer by stating the label of the chosen item.
a
(a: 5%, b: 9%)

P. CN(C)CCN1CCC(NC(=O)c2ccc3c(Nc4ccc(CN)cc4)ncnc3c2)C1 (configuration not stated)
Q. CNCCNC(=O)c1ccc2c(Nc3ccc(CN)cc3)ncnc2c1
Given P and given Q , which shows the smaller recorded inhibition? Answer by stating the label of the chosen item.
P
